assay: in vivo; conditions: AA, po, 6 mg/kg, Tmax
reportedMetric: Tmax (min)
Use min as the unit, but write only the number.

IN: May I ask what Tmax has been recorded for CC[C@@H](C(=O)[C@@H](C)[C@@H](O)[C@H](C)[C@@H]1O[C@@H]([C@@H](CC)C(=O)O)CC[C@@H]1C)[C@H]1O[C@]2(C=C[C@@H](O)[C@]3(CC[C@@](C)([C@H]4CC[C@](O)(CC)[C@H](C)O4)O3)O2)[C@H](C)C[C@@H]1C [SAL, salinomycin] ?
OUT: 25.2

====

experiment: Pharmacokinetic studies of ENR and SAL in broilers (plasma, non-compartmental); conditions: AA broiler, plasma, po, 7.5 mg/kg, MRT0-∞, broiler plasma; SAL (5 d) + ENR: SAL 60 mg/kg mixed feeding 5 days, then ENR 7.5 mg/kg gavage; n=6, Mean ± SD
reportedMetric: MRT inf (h)
Use h as the unit, but write only the number.

IN: May I ask what MRT inf has been recorded for CCN1CCN(c2cc3c(cc2F)c(=O)c(C(=O)O)cn3C2CC2)CC1 [ENR, Enrofloxacin] ?
OUT: 10.1

====

assay: Pharmacokinetic studies of ENR and SAL in broilers (plasma, non-compartmental); conditions: AA broiler, plasma, po, 7.5 mg/kg, Cmax, broiler plasma; ENR (7.5 mg/kg) gavage alone; n=6, Mean ± SD
reportedMetric: Cmax (ng/mL)
Use ng/mL as the unit, but write only the number.

IN: May I ask what Cmax has been recorded for CCN1CCN(c2cc3c(cc2F)c(=O)c(C(=O)O)cn3C2CC2)CC1 ?
OUT: 1490

====

experiment: Pharmacokinetic studies of ENR and SAL in broilers (plasma, non-compartmental); details: AA broiler, plasma, po, 7.5 mg/kg, Tmax, broiler plasma; SAL (5 d) + ENR: SAL 60 mg/kg mixed feeding 5 days, then ENR 7.5 mg/kg gavage; n=6, Mean ± SD
reportedMetric: Tmax (h)
Use h as the unit, but write only the number.

IN: May I ask what Tmax has been recorded for CCN1CCN(c2cc3c(cc2F)c(=O)c(C(=O)O)cn3C2CC2)CC1 ?
OUT: 2.17

====

assay: Pharmacokinetic studies of ENR and SAL in broilers (plasma, non-compartmental); details: AA broiler, plasma, po, 7.5 mg/kg, Ke, broiler plasma; ENR (7.5 mg/kg) gavage alone; n=6, Mean ± SD
reportedMetric: k el (s⁻¹)
Use s⁻¹ as the unit, but write only the number.

IN: May I ask what k el has been recorded for CCN1CCN(c2cc3c(cc2F)c(=O)c(C(=O)O)cn3C2CC2)CC1 ?
OUT: 1.94e-05

====

experiment: Pharmacokinetic studies of ENR and SAL in broilers (plasma, non-compartmental); conditions: AA broiler, plasma, po, 7.5 mg/kg, t1/2, broiler plasma; SAL (5 d) + ENR: SAL 60 mg/kg mixed feeding 5 days, then ENR 7.5 mg/kg gavage; n=6, Mean ± SD
reportedMetric: half-life (h)
Use h as the unit, but write only the number.

IN: May I ask what half-life has been recorded for CCN1CCN(c2cc3c(cc2F)c(=O)c(C(=O)O)cn3C2CC2)CC1 ?
OUT: 8.13

====

test: Pharmacokinetic studies of ENR and SAL in broilers (plasma, non-compartmental); conditions: AA broiler, plasma, po, 7.5 mg/kg, MRT0-∞, broiler plasma; SAL + ENR: ENR 7.5 mg/kg + SAL 6.0 mg/kg co-gavage; n=6, Mean ± SD
reportedMetric: MRT inf (h)
Use h as the unit, but write only the number.

IN: May I ask what MRT inf has been recorded for CCN1CCN(c2cc3c(cc2F)c(=O)c(C(=O)O)cn3C2CC2)CC1 ?
OUT: 10.6

====

assay: in vivo; conditions: AA broiler, po, 6 mg/kg, Ke
reportedMetric: k el (s⁻¹)
Use s⁻¹ as the unit, but write only the number.

IN: May I ask what k el has been recorded for CC[C@@H](C(=O)[C@@H](C)[C@@H](O)[C@H](C)[C@@H]1O[C@@H]([C@@H](CC)C(=O)O)CC[C@@H]1C)[C@H]1O[C@]2(C=C[C@@H](O)[C@]3(CC[C@@](C)([C@H]4CC[C@](O)(CC)[C@H](C)O4)O3)O2)[C@H](C)C[C@@H]1C ?
OUT: 1.39e-05

====

test system: CYP3A4 (broiler); test: Probe substrate (testosterone) assay of CYP3A4 activity in broiler liver microsomes; format: in vitro ADME; conditions: chicken (broiler), probe testosterone (TS); 100 µmol/L; pre-incubated 30 min at 41 °C; broiler liver microsomes; probe testosterone; read-out: inhibition rate on CYP3A4 (TS metabolism)
reportedMetric: inhibition at 30 min, 100 µmol/L (%)
Use % as the unit, but write only the number.

IN: May I ask what inhibition at 30 min, 100 µmol/L has been recorded for CCN1CCN(c2cc3c(cc2F)c(=O)c(C(=O)O)cn3C2CC2)CC1 ?
OUT: 32

====

assay: Pharmacokinetic studies of ENR and SAL in broilers (plasma, non-compartmental); conditions: AA broiler, plasma, po, 7.5 mg/kg, AUC0-36h, broiler plasma; ENR (7.5 mg/kg) gavage alone; n=6, Mean ± SD
reportedMetric: AUC(0-t)

IN: May I ask what AUC(0-t) has been recorded for CCN1CCN(c2cc3c(cc2F)c(=O)c(C(=O)O)cn3C2CC2)CC1 ?
OUT: 12800 ng·h/mL

====

test: Pharmacokinetic studies of ENR and SAL in broilers (plasma, non-compartmental); conditions: AA broiler, plasma, po, 7.5 mg/kg, AUC0-36h, broiler plasma; SAL + ENR: ENR 7.5 mg/kg + SAL 6.0 mg/kg co-gavage; n=6, Mean ± SD
reportedMetric: AUC(0-t)
Answer format: number, then unit.

IN: May I ask what AUC(0-t) has been recorded for CCN1CCN(c2cc3c(cc2F)c(=O)c(C(=O)O)cn3C2CC2)CC1 [ENR, Enrofloxacin] ?
OUT: 16700 ng·h/mL

====

assay: Pharmacokinetic studies of ENR and SAL in broilers (plasma, non-compartmental); settings: AA broiler, plasma, po, 7.5 mg/kg, AUC0-∞, broiler plasma; ENR (7.5 mg/kg) gavage alone; n=6, Mean ± SD
reportedMetric: AUC(0-inf)
Answer format: number, then unit.

IN: May I ask what AUC(0-inf) has been recorded for CCN1CCN(c2cc3c(cc2F)c(=O)c(C(=O)O)cn3C2CC2)CC1 ?
OUT: 13500 ng·h/mL

====

assay: Pharmacokinetic studies of ENR and SAL in broilers (plasma, non-compartmental); settings: AA broiler, plasma, po, 7.5 mg/kg, AUC0-36h, broiler plasma; SAL (5 d) + ENR: SAL 60 mg/kg mixed feeding 5 days, then ENR 7.5 mg/kg gavage; n=6, Mean ± SD
reportedMetric: AUC(0-t) (ng·h/mL)
Use ng·h/mL as the unit, but write only the number.

IN: May I ask what AUC(0-t) has been recorded for CCN1CCN(c2cc3c(cc2F)c(=O)c(C(=O)O)cn3C2CC2)CC1 ?
OUT: 15300

====

test: Pharmacokinetic studies of ENR and SAL in broilers (plasma, non-compartmental); conditions: AA broiler, plasma, po, 7.5 mg/kg, MRT0-36h, broiler plasma; SAL (5 d) + ENR: SAL 60 mg/kg mixed feeding 5 days, then ENR 7.5 mg/kg gavage; n=6, Mean ± SD
reportedMetric: MRT last

IN: May I ask what MRT last has been recorded for CCN1CCN(c2cc3c(cc2F)c(=O)c(C(=O)O)cn3C2CC2)CC1 ?
OUT: 8.35 h

====

assay: in vivo; conditions: AA, po, 6 mg/kg, t1/2
reportedMetric: half-life (h)
Use h as the unit, but write only the number.

IN: May I ask what half-life has been recorded for CC[C@@H](C(=O)[C@@H](C)[C@@H](O)[C@H](C)[C@@H]1O[C@@H]([C@@H](CC)C(=O)O)CC[C@@H]1C)[C@H]1O[C@]2(C=C[C@@H](O)[C@]3(CC[C@@](C)([C@H]4CC[C@](O)(CC)[C@H](C)O4)O3)O2)[C@H](C)C[C@@H]1C ?
OUT: 14.2

====

test: Pharmacokinetic studies of ENR and SAL in broilers (plasma, non-compartmental); conditions: AA broiler, plasma, po, 7.5 mg/kg, Ke, broiler plasma; SAL + ENR: ENR 7.5 mg/kg + SAL 6.0 mg/kg co-gavage; n=6, Mean ± SD;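 further: plasma drug levels measured by HPLC or LC-MS/MS, with PK parameters obtained through non-compartmental analysis in WinNonlin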
reportedMetric: k el

IN: May I ask what k el has been recorded for CCN1CCN(c2cc3c(cc2F)c(=O)c(C(=O)O)cn3C2CC2)CC1 [ENR, Enrofloxacin] ?
OUT: 2.5e-05 s⁻¹

====

tested on: CYP3A4 (broiler); experiment: Probe substrate (testosterone) assay of CYP3A4 activity in broiler liver microsomes; format: in vitro ADME; conditions: broiler, chicken (broiler), microsomes
reportedMetric: inhibition at 30 min, 100 µmol/L (%)
Use % as the unit, but write only the number.

IN: May I ask what inhibition at 30 min, 100 µmol/L has been recorded for CC[C@@H](C(=O)[C@@H](C)[C@@H](O)[C@H](C)[C@@H]1O[C@@H]([C@@H](CC)C(=O)O)CC[C@@H]1C)[C@H]1O[C@]2(C=C[C@@H](O)[C@]3(CC[C@@](C)([C@H]4CC[C@](O)(CC)[C@H](C)O4)O3)O2)[C@H](C)C[C@@H]1C ?
OUT: 52
